target: Purified PMPMEase (Sus scrofa, UniProt Q29550); construct: from tissue; host or cells: porcine liver supernatant, purified by column chromatography; format: biochemical, porcine
Sequence (Q29550 19-566): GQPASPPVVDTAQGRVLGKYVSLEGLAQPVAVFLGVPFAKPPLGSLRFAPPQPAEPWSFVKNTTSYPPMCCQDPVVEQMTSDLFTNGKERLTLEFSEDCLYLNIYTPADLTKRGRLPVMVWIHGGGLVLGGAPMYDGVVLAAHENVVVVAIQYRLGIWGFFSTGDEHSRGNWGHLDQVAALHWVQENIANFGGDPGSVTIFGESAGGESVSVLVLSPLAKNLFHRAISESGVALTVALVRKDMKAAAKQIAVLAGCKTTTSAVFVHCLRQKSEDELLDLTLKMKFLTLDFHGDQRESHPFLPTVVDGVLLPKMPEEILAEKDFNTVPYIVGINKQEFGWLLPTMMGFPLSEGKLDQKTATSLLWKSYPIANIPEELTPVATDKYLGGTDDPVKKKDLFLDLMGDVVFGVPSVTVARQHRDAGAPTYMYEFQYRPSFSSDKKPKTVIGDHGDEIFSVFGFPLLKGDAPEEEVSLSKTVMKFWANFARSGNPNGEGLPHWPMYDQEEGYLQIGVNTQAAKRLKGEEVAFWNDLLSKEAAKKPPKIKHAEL
assay-metric: Residual activity (% of Control, SEM, n = 3) 1 mM

O=C(N[C@@H](Cc1ccccc1)C(=O)CCl)OCc1ccccc1: 57.0 ± 2.0 % of Control

// field: Residual activity (% of Control, SEM, n = 3) 1 mM; key: O=C(C(=O)c1ccccc1)c1ccccc1 ; value = 38.0 ± .43 % of Control

Please fill in: Residual activity (% of Control, SEM, n = 3) 1 mM reported for COC(=O)NS(=O)(=O)c1ccc(N)cc1 = 91.7 ± 6.9 % of Control

All values here come from patent US8097722B2.
